TESTED SYSTEM: T1, wild type Stat3 (recombinant human Stat3alpha with N-terminal 6-histidine tag) (human, UniProt P40763 1-770)
T1 construct: Expressed in Sf9 cells and purified on Ni-NTA for peptide assays; expressed from pcDNA3.1 in 293T cells for the G-CSFR co-immunoprecipitation; also called WT; purified Stat3
T1 sequence (P40763 other isoform, or with tags, fused parts or gaps limits assumed): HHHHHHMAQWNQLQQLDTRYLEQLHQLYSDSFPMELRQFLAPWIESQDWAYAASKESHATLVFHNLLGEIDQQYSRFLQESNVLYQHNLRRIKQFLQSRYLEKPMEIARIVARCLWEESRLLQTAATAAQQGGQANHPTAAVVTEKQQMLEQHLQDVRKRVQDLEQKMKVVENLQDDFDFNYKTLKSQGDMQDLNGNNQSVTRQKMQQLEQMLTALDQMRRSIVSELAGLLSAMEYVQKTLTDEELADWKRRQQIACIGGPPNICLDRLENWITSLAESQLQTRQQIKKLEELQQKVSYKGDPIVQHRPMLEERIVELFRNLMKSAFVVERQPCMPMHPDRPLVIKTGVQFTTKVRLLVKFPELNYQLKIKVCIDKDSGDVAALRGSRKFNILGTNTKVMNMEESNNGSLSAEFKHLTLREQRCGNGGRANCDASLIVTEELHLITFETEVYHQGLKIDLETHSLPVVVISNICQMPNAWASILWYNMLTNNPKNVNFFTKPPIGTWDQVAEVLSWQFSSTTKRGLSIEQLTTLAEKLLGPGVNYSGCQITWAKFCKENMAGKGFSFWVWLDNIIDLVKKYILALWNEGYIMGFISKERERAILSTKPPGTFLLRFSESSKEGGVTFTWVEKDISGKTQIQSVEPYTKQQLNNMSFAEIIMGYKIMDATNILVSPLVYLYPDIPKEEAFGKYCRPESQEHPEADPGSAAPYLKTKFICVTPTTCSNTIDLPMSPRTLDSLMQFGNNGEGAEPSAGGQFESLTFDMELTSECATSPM
PROCEDURE TEXT: peptide pull-down: biotinylated peptide on NeutrAvidin agarose, purified His-tagged Stat3 protein added, bound protein immunoblotted with Stat3 mAb
Non-standard residues stand in square brackets, D forms with d. No end group written: not given here. *: point of attachment. d‑Biotin‑LC = N-terminal biotin (d-Biotin-LC), O=C(CCCC[C@@H]1SC[C@@H]2NC(=O)N[C@@H]21)NCCCCCC(=O)*; pY = N[C@@H](Cc1ccc(OP(=O)(O)O)cc1)C(=O)O

| BINDER | binding result |
| --- | --- |
| {d‑Biotin‑LC}-PSPLS[pY]ENLTFQ [pY764 phosphododecapeptide (G-CSFR)] | no binding |
| {d‑Biotin‑LC}-TLVQTYVLQGDP [Y704 non-phosphorylated dodecapeptide (G-CSFR)] | no binding |
| {d‑Biotin‑LC}-PGPGHYLRCDST [Y744 non-phosphorylated dodecapeptide (G-CSFR)] | no binding |
| {d‑Biotin‑LC}-SDQVL[pY]GQLLGS [pY729 phosphododecapeptide (G-CSFR)] | no binding |
